- target_system: T1, drDnaB (DnaB) (Deinococcus radiodurans R1 (ATCC13939), UniProt Q9RWW6 1-448)
- T1 sequence: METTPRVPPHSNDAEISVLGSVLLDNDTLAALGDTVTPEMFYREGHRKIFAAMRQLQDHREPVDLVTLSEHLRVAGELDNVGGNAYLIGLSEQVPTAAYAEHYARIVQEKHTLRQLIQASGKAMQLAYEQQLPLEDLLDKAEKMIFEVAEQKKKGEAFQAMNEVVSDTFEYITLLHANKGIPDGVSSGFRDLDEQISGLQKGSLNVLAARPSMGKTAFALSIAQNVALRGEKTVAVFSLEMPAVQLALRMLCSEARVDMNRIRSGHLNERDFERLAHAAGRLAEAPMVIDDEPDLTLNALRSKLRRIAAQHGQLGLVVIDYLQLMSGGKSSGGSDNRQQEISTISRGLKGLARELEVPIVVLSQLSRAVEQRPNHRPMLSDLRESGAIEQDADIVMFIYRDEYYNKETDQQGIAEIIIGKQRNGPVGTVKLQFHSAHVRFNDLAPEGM
- measurement_notes: EMSA; 1 mM ATP; EMSA: 50 mM Tris-HCl pH 8.0, 75 mM KCl, 5 mM MgSO4, 0.1 mM DTT, +/- 1 mM ATP, ~30 nM 32P-DNA, 37 C 15 min
- test_context: protein: recombinant; tags: N-terminal 6xHis (pET28a); chain copies: 6; label: 32P 5' end
measured_metric: pKd
Hey, just a heads up that pKd is the negative log base 10 of the concentration in molar.

Please fill in: pKd reported for GGAATTCCAATGAACCGCAAAACCGCAAAAACCGTACCGA (ssDNA) [ssDNA oligo 99F (40 nt)] = 5.85
